Reference for the values: patent US20170233449A1

Entries and their pKd
Molecular target: T1, cynomolgus monkey CD38 extracellular domain (ECD), tagged (cynomolgus monkey, Avitag biotinylated (in the ELISAs))
T1 construct: also called cynomolgus monkey CD38 ED
T1 chain: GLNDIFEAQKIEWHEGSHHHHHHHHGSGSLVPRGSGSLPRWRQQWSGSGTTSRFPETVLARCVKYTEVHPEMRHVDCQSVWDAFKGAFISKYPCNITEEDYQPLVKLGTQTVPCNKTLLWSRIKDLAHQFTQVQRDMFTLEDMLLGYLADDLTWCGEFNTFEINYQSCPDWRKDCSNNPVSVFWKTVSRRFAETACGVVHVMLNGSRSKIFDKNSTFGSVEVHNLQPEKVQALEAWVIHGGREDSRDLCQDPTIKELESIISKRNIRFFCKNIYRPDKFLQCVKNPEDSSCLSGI
Assay: SPR (Biacore T200), antibody captured on Protein A, CD38 ED as analyte, 1:1 Langmuir fit;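 also: CM5 sensor chip in HBS-P buffer at pH 7.4, antibody loaded at 5 µg/mL, responses corrected against a blank reference flow cell before fitting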
pKd: −log10 of the molar value.

BINDER | pKd
R5D1 IgG1 (antibody, V domains shown, chimeric rat-human IgG1) VH: EVQLQQSGPEVGRPGSSVKISCKASGYTFTDYIMHWVKQSPGQGLEWIGWIDPEYGRTDYAEKFKKKATLTADTSSSTAYIQLSSLASEDTATYFCARSAHTTGFGFAYWGQGTLVTVSS VL: DIQMTQSPASLSASLGETVTIECRASEDIYSNLAWYQQKPGNSPQLLIYDANSLADGVPSRFSASGSGTQFSLKINSLRSEDVASYFCQQYNNYPYTFGAGTKLELKR | 9.00
R10A2 IgG1 (antibody, V domains shown, chimeric rat-human IgG1) VH: EVQLQQSGPEVGRPGSSVKISCKASGYTFTDSVMNWVKQSPGQGLEWIGWIDPEYGRTDVAEKFKKKATLTADSSSSTAYIYLSGLTSEDTATYFCARTKYNSGYGFPYWGQGSLVTVSS VL: DIVMTQSPTSISISVGERVTMNCKASQNVDSDVDWYQQKTGQSPKLLIYKASNRYTGVPDRFTGSGSGTDFTFTISNMQAEDLAVYYCMQSNTHPRTFGGGTKLELKR | 8.66
R5E8 IgG1 (antibody, V domains shown, chimeric rat-human IgG1) VH: EVQLQQSGPEVGRPGSSVKISCKASGYIFTDYIMHWVKQSPGQGLEWIGWIDPEYGSTDYAEKFKKKATLTADTSSSTAYIQLSSLTSEDTATYFCARVAIITTVASGGFAYWGQGTLVTVSS VL: DIVMTQGALPNPVPSGESASITCQSSESLLHSNGKTYLNWYLQRPGQSPQLLIYWMSTRAAGVSDRFSGSGSGTDFTLTISGVEAEDVGVYYCQQFLEYPPTFGSGTKLEIKR | 8.38
X355/02 IgG1 (antibody, V domains shown, human IgG1 from phage-derived Fab) VH: QLQLQESGPGLVKPSETLSLTCTVSGGSISSSSYYWSWIRQHPGKGLEWIGYIYYSGSTNYNPSLKSRVTISVDTLKNQISLRLTSVTAADTAVYYCARVGGAGGWPMDVWGQGTTVTVSS VL: QAVLTQPASLSASPGESARLTCTLPSDINVRYYNIYWYQQKPGSPPRYLLYYYSDSHKGQGSGVPSRFSGSKDVSTNSGILLISGLQSEDEADYYCMTWSSNGSGVFGGGTQLTVLG | 7.56
